Origin of values: ChEMBL document CHEMBL1201862

Molecular target: Mu-type opioid receptor (Homo sapiens, UniProt P35372);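 further: imaging of beta-arrestin GFP recruitment into spots after receptor activation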
Sequence (P35372 whole entry): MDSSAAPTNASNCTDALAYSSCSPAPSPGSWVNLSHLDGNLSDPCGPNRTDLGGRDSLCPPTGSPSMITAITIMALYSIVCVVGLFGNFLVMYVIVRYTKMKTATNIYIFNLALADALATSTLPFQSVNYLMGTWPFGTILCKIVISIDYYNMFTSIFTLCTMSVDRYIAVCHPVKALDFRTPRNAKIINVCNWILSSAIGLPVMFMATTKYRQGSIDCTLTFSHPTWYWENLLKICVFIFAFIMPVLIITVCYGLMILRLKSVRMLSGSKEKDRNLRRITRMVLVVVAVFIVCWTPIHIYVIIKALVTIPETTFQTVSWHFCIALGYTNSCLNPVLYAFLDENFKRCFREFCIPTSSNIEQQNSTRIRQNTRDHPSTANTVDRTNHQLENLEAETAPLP
Assay: HTS Image-Based Screen for Agonists of the MOR Receptor. [Related pubchem assays (depositor defined):AID1777, AID1785, AID1786, AID2133]
Assay type: functional
Active and inactive are the calls of the source. How the calls were made is not given here.
measurement-kind: EC50

>>> df
                                   molecule  measurement_kind     reported_result
0  CCCCN(CCCNC(=O)C1CCN(S(=O)(=O)N2CCOCC2)CC1)c1ccccc1              EC50  > 32 µM (inactive)
1  N#Cc1ccc(-c2cccnc2)nc1SCC(=O)Nc1sc2c(c1C#N)CCC2              EC50  > 32 µM (inactive)
2  COc1cc(OC)c(OC)cc1CCC(C)NCCC(c1ccccc1)c1ccccc1 (centres undefined)              EC50  > 32 µM (inactive)
3  Cc1cc(OCC(=O)Nc2ccc(S(=O)(=O)N3CCN(C)CC3)cc2)cc(C)c1Cl              EC50  > 32 µM (inactive)
